Source listed as the RNAGym collection of RNA variant scans (doi:10.7554/elife.90254).

B1: LINE1-full (parent)
chain: UACGUAGGUGGUUUUCCCCUGAUAGUGCUAAGGGGGCCUGGAAGUUUGGACUGGGCAGAGCUCAACACAGCGUGGCAAAGUGGCUGUGGCUAGACUGCCUCUCUGGAUUCCUCGUCACUCAGCAGGGCAUCUCUGAGAGAAAUGCC

variants of: B1; assay: self-cleavage, relative activity (ratio to wild type); higher = more cleavage; in vitro, sequencing; the parent is a self-cleaving ribozyme
observation.type: self-cleavage
When you answer, write just the number.

Reference set, count: 3
A57U U143C : 0.14
A57U A136C : 0.1
G54U U108C : 0.36

Req: Requested field: self-cleavage. Item: G35C U143A
Resp: 1.39

Req: Can you handle U23A A67G next?
Resp: 0.71
